Quick list: log10 IC50 per entry.
- TARGET_OR_SYSTEM: recombinant human Mcl-1 (residues 171-327) / Bim interaction (Homo sapiens (Human), UniProt Q07820)
- Sequence (Q07820 171-327): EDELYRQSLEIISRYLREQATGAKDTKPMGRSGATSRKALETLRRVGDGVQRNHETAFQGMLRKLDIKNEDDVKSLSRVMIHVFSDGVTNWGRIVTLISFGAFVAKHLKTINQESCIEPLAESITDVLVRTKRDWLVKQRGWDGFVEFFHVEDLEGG
- ASSAY_PROCEDURE: biochemical
- Type: binding
- CONDITION_NOTES: TR-FRET, Mcl-1(171-327) / biotin-Bim (51-76); read-out: Mcl-1 HTRF IC50
Log10 applied to IC50; unit prior to transform: nM.

Worked examples, 5 compounds total:
| COMPOUND | METRIC | MEASURED |
| --- | --- | --- |
| CC(=O)N[C@@]1(CO)CCC[C@H](C)[C@@H](C)S(=O)(=O)NC(=O)c2ccc3c(c2)N(C[C@@H]2CC[C@H]21)C[C@@]1(CCCc2cc(Cl)ccc21)CO3 | log10 IC50 | -0.36 |
| C[C@@H]1[C@@H](C)C/C=C/[C@@](O)(COS(C)(=O)=O)[C@@H]2CC[C@H]2CN2C[C@@]3(CCCc4cc(Cl)ccc43)COc3ccc(cc32)C(=O)NS1(=O)=O | log10 IC50 | -0.50 |
| C[C@@H]1[C@@H](C)CCC[C@@](O)(CS(=O)(=O)N2CCN(C)CC2)[C@@H]2CC[C@H]2CN2C[C@@]3(CCCc4cc(Cl)ccc43)COc3ccc(cc32)C(=O)NS1(=O)=O [Example 100138] | log10 IC50 | -0.26 |
| C[C@@H]1[C@@H](C)CCC[C@](O)(CC(=O)N(C)C(C)(C)C)[C@@H]2CC[C@H]2CN2C[C@@]3(CCCc4cc(Cl)ccc43)COc3ccc(cc32)C(=O)NS1(=O)=O (single isomer, unassigned) [Example 100143] | log10 IC50 | 0.27 |
| C[C@@H]1[C@@H](C)CCC[C@]2(OCCS2)[C@@H]2CC[C@H]2CN2C[C@@]3(CCCc4cc(Cl)ccc43)COc3ccc(cc32)C(=O)NS1(=O)=O (single isomer, unassigned) | log10 IC50 | 0.58 |

Bench note: what log10 IC50 did C[C@@H]1[C@@H](C)CCC[C@@](O)(c2nccn2C)[C@@H]2CC[C@H]2CN2C[C@@]3(CCCc4cc(Cl)ccc43)COc3ccc(cc32)C(=O)NS1(=O)=O show?
0.15

Subsequent entry: C[C@@H]1[C@@H](C)CCC[C@@](O)(CC(=O)N2CCC2)[C@@H]2CC[C@H]2CN2C[C@@]3(CCCc4cc(Cl)ccc43)COc3ccc(cc32)C(=O)NS1(=O)=O
-0.45

And C[C@@H]1[C@@H](C)C/C=C/[C@@](O)(CC(=O)N2CCCC2)[C@@H]2CC[C@H]2CN2C[C@@]3(CCCc4cc(Cl)ccc43)COc3ccc(cc32)C(=O)NS1(=O)=O [Example 100253] ?
-0.83
